assay-explanation: Cmax in rat at 3 mg/kg, po administered as single dose by LC/MS/MS analysis
Assay type: ADME, organism-based
Design: dose 3 mg/kg, route oral
experimental-conditions: in vivo
parameter: Cmax

entry_smiles=CCOC(=O)N1CC/C(=C\C#Cc2cccc(C)n2)C1 parameter=Cmax result="552 ng/mL"

---

assay-explanation: AUC in rat at 3 mg/kg, po administered as single dose by LC/MS/MS analysis
Format: ADME, organism-based
experimental-conditions: in vivo
parameter: AUC (ng·h/mL)

entry_smiles=CCOC(=O)N1CC/C(=C\C#Cc2cccc(C)n2)C1 endpoint_unit=ng·h/mL readout_number=2120

---

assay-explanation: Half life in rat at 3 mg/kg, po administered as single dose by LC/MS/MS analysis
Assay type: ADME, organism-based
experimental-conditions: in vivo
parameter: half-life (h)

entry_smiles=CCOC(=O)N1CC/C(=C\C#Cc2cccc(C)n2)C1 readout_number=2.22
